Taken from the supplement of paper PMC10065799.

Target: c-Src SH2;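 note: peptide library displayed on the E. coli surface as eCPX fusions, selected cells deep-sequenced, score is each peptide's frequency after selection divided by its frequency in the input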
Test: SH2 binding enrichment of the phosphorylated peptide, bacterial display (enrichment ratio); higher = better substrate or ligand; peptides without Tyr show the background
Label Satisfied for high-side SH2 binding enrichment (at or above 0.6) and Not satisfied for low-side SH2 binding enrichment (below it).

Test whether the sequence KMATAYIRSMS [BCO1_Y264_R267S] records SH2 binding enrichment of 0.6 or higher. Not satisfied

Test whether the sequence RLLVVYPWTKR [HBB_Y36_Q40K] records SH2 binding enrichment of 0.6 or higher. Not satisfied

Test whether the sequence ENQEIYRKAFD [KPNA1_Y493_Q494R] records SH2 binding enrichment of 0.6 or higher. Not satisfied

Test whether the sequence VPLLEYYWDIF [CDAN1_Y712_R714W] records SH2 binding enrichment of 0.6 or higher. Satisfied

Test whether the sequence KVASVYEAPGF [NT5C_Y65] records SH2 binding enrichment of 0.6 or higher. Satisfied

Test whether the sequence QLHEHYKIHKE [NSMAF_Y626] records SH2 binding enrichment of 0.6 or higher. Satisfied
